Exercise: state measured growth for each of the molecules provided.
Test system: HS 578T breast
Assay: NCI-60 one-dose screen, 48 h (100 = growth as untreated, 0 = no growth, -100 = all killed)
Conditions: 10 µM unless noted
Experimental: Growth inhibition of the HS 578T human tumor cell line is measured as a screen for anti-cancer activity. Cells are grown in 96 well plates and exposed to the test compound for 48 hours. Compounds are tested at a single concentration, which is 10^-5 M for most compounds. The reported endpoint is percent growth (GI% or GIPRCNT), where numbers from 0 - 100% represent growth inhibition, and numbers from -100% - 0 represent cell death. For example, a value of 40 represents 60% growth inhibition. […]
This is part of a sample that, as a whole, favours compounds with a hit. Of some 83,000 tested, about 20% had one in any assay.
Give the value in % but do not write % after it.

Request: Give the measured growth of Cc1cccc(-n2c(C)nc3ccc(N4CCCNC4=O)cc3c2=O)c1 .
Response: 111

Request: Give the measured growth of COC(=O)C1=C(C(=O)Nc2cccnc2)C2OC1(C(Cc1ccccc1)Oc1ccccc1)C1OC21 (configuration not stated) .
Response: 101

Request: Give the measured growth of CC(C)c1ccc(-n2c(=S)[nH]c3sc4c(c3c2=O)CCC(=O)C4)cc1 .
Response: 32.4

Request: Give the measured growth of O=C(CSc1nc2ccc([N+](=O)[O-])cc2[nH]1)Nc1cccc([N+](=O)[O-])c1 .
Response: 66.9

Request: Give the measured growth of O=C1CC2C=CCN2C=C1NC(=O)C1CCCCC1 (configuration not stated) .
Response: 105

Request: Give the measured growth of COc1ccc2nc(Cl)c(/C=C/C(=O)c3ccc(NC(=O)CSc4nnc(-c5ccc(Cl)c(Cl)c5)n4-c4ccccc4)cc3)cc2c1 .
Response: 89.3

Request: Give the measured growth of Cn1cc(/C=C2/C(=O)Nc3ccccc32)c2ccccc21 .
Response: 89.3

Request: Give the measured growth of COc1ccc(-c2ccc(=O)oc2C#Cc2cc(OC)c(OC)c(OC)c2)cc1O .
Response: -8.91

Request: Give the measured growth of CN(C)c1ccc(-c2cc(-c3ccc(Nc4nc(Nc5ccc(Cl)cc5)nc(Nc5ccc(Cl)cc5)n4)cc3)nc(N)c2C#N)cc1 .
Response: 82.5

Request: Give the measured growth of CC1=NN(c2ccc(Cl)cc2)CC1(C)N=O (configuration not stated) .
Response: 82.9

Request: Give the measured growth of CC/C=C1/C(=O)C=C[C@@H]1C/C=C\CCCC(=O)OC .
Response: 43

Request: Give the measured growth of CCNCc1ccc(O)c2ncccc12 .
Response: 39.9

###

System: M14 melanoma
Assay: NCI-60 one-dose screen, 48 h (100 = growth as untreated, 0 = no growth, -100 = all killed)
Settings: 10 µM unless noted
Compounds without any hit were thinned out: in the full panel of roughly 83,000, 20% have a hit.
measure: growth (%)
Give the value in % but do not write % after it.

Request: Give the measured growth of CN(C)Cc1ccc(C(=O)Nc2ccc3ncnc(Nc4ccc(Oc5cccc(F)c5)c(Cl)c4)c3c2)cc1 .
Response: -69.3

Request: Give the measured growth of O=C(NCc1ccccc1O)c1cccc2ccccc12 .
Response: 75.8

Request: Give the measured growth of Cc1cc(C(=O)Nc2cc(Nc3ncccc3-c3ncnc4nc[nH]c34)ccc2F)cc(C(F)(F)F)c1 .
Response: 5.2

Request: Give the measured growth of O=c1ccc2nc(C(F)(F)F)nn(-c3ccccc3)c-2c1 .
Response: 62.1

Request: Give the measured growth of C=CC(=O)N1CCN(c2ccc3cccc(NC(=O)c4cnc(C)cn4)c3n2)CC1 .
Response: 41.2

Request: Give the measured growth of CCOC(=O)c1c(NC(=O)c2ccc(C(C)(C)C)cc2)sc2cc(O)ccc12 .
Response: 86.6

Request: Give the measured growth of Clc1ccc(-c2cn3ccsc3n2)c(Cl)c1Cl .
Response: 98.7

Request: Give the measured growth of N#CCC1=NC(c2cccs2)=Nc2ccccc2S1 .
Response: 94

Request: Give the measured growth of CCCCn1sc(=O)n(Cc2ccc(CNC(=O)OCc3ccc4c(Cl)cc(Cl)c(O)c4n3)cc2)c1=O .
Response: 60.7

Request: Give the measured growth of C=C1C(=O)O[C@H]2[C@H]1CC/C(Cn1cc(-c3cc(C(F)(F)F)cc(C(F)(F)F)c3)nn1)=C\CC[C@@]1(C)O[C@@H]21 .
Response: -70.3

Request: Give the measured growth of COc1cc(C2C3=C(COC3=O)N(CCO)c3cc4c(cc32)OCCO4)cc(OC)c1OC (centres undefined) .
Response: -28.8

Request: Give the measured growth of COC(c1ccc2ccccc2c1)C(C)C(F)F (centres undefined) .
Response: 99.1

Request: Give the measured growth of Brc1ccc(-c2cnc3nonc3n2)cc1 .
Response: 80.1

Request: Give the measured growth of COc1ccc(Cl)cc1Nc1nc(C(F)(F)F)ccc1C(=O)N/N=C/c1ccccc1Cl .
Response: 15.2

Request: Give the measured growth of N=C(N)c1ccc(-c2ccc(-c3ccc(Cl)cc3Cl)s2)cc1F .
Response: -15.1

Request: Give the measured growth of CCCCCCC(=O)Nc1ncc(Cc2ccc(C)cc2)s1 .
Response: 31.6

Request: Give the measured growth of COc1ccc2c(c1)c(-c1nonc1-c1c[nH]c3ccc(Br)cc13)cn2C .
Response: 20.8

Request: Give the measured growth of Cn1cc(-c2nn3cc(-c4ccccc4)nc3s2)c2ccccc21 .
Response: 51.5

Request: Give the measured growth of COc1ccc2c(O)c(/C=C3\N=Nc4ccccc43)oc2c1C[C@H]1CCNC[C@H]1F .
Response: 28.7

Request: Give the measured growth of CCOC(=O)C1=C(C)N=C2SC=C(c3ccccc3)N2[C@H]1c1cn[nH]c1-c1ccc(Cl)cc1 .
Response: 47.7

Request: Give the measured growth of Oc1c(I)cc(-c2nc3ccccc3s2)cc1CN(Cc1ccccn1)Cc1ccccn1 .
Response: -27.5

Request: Give the measured growth of Cc1ccccc1OCC(O)COc1ccccc1C .
Response: 98.5

Request: Give the measured growth of COC(=O)Cc1nc(C#N)c(N(C)C)o1 .
Response: 103

Request: Give the measured growth of CC(C)c1ccc(C(=O)Nc2sc3cc(O)ccc3c2C#N)cc1 .
Response: 5.43

Request: Give the measured growth of N#Cc1c(-c2ccccc2)c(C#N)c2c(C#N)c(N)nn2c1N .
Response: 32.9

Request: Give the measured growth of Cc1nn(-c2ccccc2)c(N2CCCCC2)c1/C=N/NC(=O)Cn1c(=O)sc2ccccc21 .
Response: 72.2

Request: Give the measured growth of CCCCCSB(SCCCCC)c1ccccc1 .
Response: 102

Request: Give the measured growth of CC(C(=O)O)n1c(O)c(C=Nc2cccnc2)sc1=S (centres undefined) .
Response: 95.3

Request: Give the measured growth of Fc1ccc2c(c1)c(-c1nc(-c3c[nH]c4ncccc34)cs1)cn2CCCN1CCOCC1 .
Response: 34.7
